test-method-notes: Metabolic (microsomal) stability assay, human liver microsomes (HLM)
Format: in vitro ADME
experimental-parameters: predicted clearance as percent of liver blood flow, 1 μM
Response key: YES means HLM QH >= 60%; NO means HLM QH < 60%.

Task: Does the molecule C[C@H](Oc1cc(N2CC[C@@H](O)C2)nc(-c2noc3c2CCC[C@@]32CCCc3sc(N)c(C#N)c32)n1)[C@@H]1CCCN1C have recorded HLM QH that is 60% or more?
Output: NO

Task: Does the molecule CO[C@H]1CCN(C)[C@@H]1[C@H](C)Oc1cc(-n2ccc(C(=O)N[C@H]3CCOC3)n2)nc(-c2noc3c2CCC[C@@]32CCCc3sc(N)c(C#N)c32)n1 have recorded HLM QH that is 60% or more?
Output: YES

Task: Does the molecule C[C@H](Oc1cc(-n2ccc(C#N)n2)nc(-c2noc3c2CCC[C@@]32CCCc3sc(N)c(C#N)c32)n1)[C@@H]1CCCN1C have recorded HLM QH that is 60% or more?
Output: NO

Task: Does the molecule C[C@H](Oc1cc(-n2cc(Cn3ccnc3)nn2)nc(-c2noc3c2CCC[C@@]32CCCc3sc(N)c(C#N)c32)n1)[C@@H]1CCCN1C have recorded HLM QH that is 60% or more?
Output: NO

Task: Does the molecule COCCNC(=O)c1ccn(-c2cc(O[C@@H](C)[C@@H]3[C@@H](OC)CCN3C)nc(-c3noc4c3CCC[C@@]43CCCc4sc(N)c(C#N)c43)n2)n1 have recorded HLM QH that is 60% or more?
Output: YES

Task: Does the molecule CO[C@H]1CCN(C)[C@@H]1[C@H](C)Oc1cc(-n2ccc(C(N)=O)n2)nc(-c2noc3c2CCC[C@@]32CCCc3sc(N)c(C#N)c32)n1 have recorded HLM QH that is 60% or more?
Output: NO

* * *

Kindly supply the reported solubility at 24 h values for the records listed here.
test-method-notes: Solubility measurement (DMSO solution method), McIlvaine buffer pH 4.5 or 6.8
Format: physicochemical
experimental-parameters: aqueous buffer, kinetic from dmso stock; McIlvaine buffer pH 4.5; DMSO stock diluted to 250 μM; 24 h shaking at ambient temperature; read-out: solubility pH 4.5
Response body: numeric value in µg/mL, unit text excluded.

Task: Which solubility at 24 h is listed for C[C@H](Oc1cc(-n2ccc(C(N)=O)n2)nc(-c2noc3c2CCC[C@@]32CCCc3sc(N)c(C#N)c32)n1)[C@@H]1CCCN1C ?
Output: 80

Task: Which solubility at 24 h is listed for C[C@H](Oc1cc([C@@H]2CCOC2)nc(-c2onc3c2CCC[C@@]32CCCc3sc(N)c(C#N)c32)n1)[C@@H]1CCCN1C ?
Output: 112

Task: Which solubility at 24 h is listed for C[C@H](Oc1cc(-c2cccc(CO)c2)nc(-c2noc3c2CCC[C@@]32CCCc3sc(N)c(C#N)c32)n1)[C@@H]1CCCN1C ?
Output: 40

Task: Which solubility at 24 h is listed for C[C@H](Oc1cc(-n2cncc3ccnc2-3)nc(-c2noc3c2CCC[C@@]32CCCc3sc(N)c(C#N)c32)n1)[C@@H]1CCCN1C ?
Output: 3

Task: Which solubility at 24 h is listed for Cc1nc(-c2cc(O[C@@H](C)[C@@H]3CCCN3C)nc(-c3onc4c3CCC[C@@]43CCCc4sc(N)c(C#N)c43)n2)cs1 ?
Output: 68

Task: Which solubility at 24 h is listed for C[C@H]1CNCCCN1c1cc(-c2ccn(C)n2)nc(-c2noc3c2CCC[C@@]32CCCc3sc(N)c(C#N)c32)n1 ?
Output: 82

Task: Which solubility at 24 h is listed for C[C@H](Oc1cc(-n2ccc(-c3cn(CC4(C)COC4)nn3)n2)nc(-c2noc3c2CCC[C@@]32CCCc3sc(N)c(C#N)c32)n1)[C@@H]1CCCN1C ?
Output: 23

Task: Which solubility at 24 h is listed for C[C@H]1CNCCCN1c1cc(-n2ccnc2)nc(-c2noc3c2CCC[C@@]32CCCc3sc(N)c(C#N)c32)n1 ?
Output: 86

Task: Which solubility at 24 h is listed for COC(=O)c1ccc(-c2cc(O[C@@H](C)[C@@H]3CCCN3C)nc(-c3noc4c3CCC[C@@]43CCCc4sc(N)c(C#N)c43)n2)o1 ?
Output: 41

Task: Which solubility at 24 h is listed for C[C@H](Oc1cc(-n2cc(C(=O)N(C)C)nn2)nc(-c2noc3c2CCC[C@@]32CCCc3sc(N)c(C#N)c32)n1)[C@@H]1CCCN1C ?
Output: 117

* * *

Test system: NCI-H2122 cells
test-method-notes: NCI-H2122 CTG proliferation assay (120 h) (NSCLC, G12C)
Format: cell-based
experimental-parameters: Homo sapiens
measured-metric: IC50 (nM)
Response body: numeric value in nM, unit text excluded.

Task: Which IC50 is listed for CC(=O)N1CC=C(c2cc(O[C@@H](C)[C@@H]3CCCN3C)nc(-c3noc4c3CCC[C@@]43CCCc4sc(N)c(C#N)c43)n2)CC1 [II-81] ?
Output: 1680

Task: Which IC50 is listed for C[C@H](Oc1cc(N2CCC[C@H](O)C2)nc(-c2noc3c2CCC[C@@]32CCCc3sc(N)c(C#N)c32)n1)[C@@H]1CCCN1C [II-57] ?
Output: 916

Task: Which IC50 is listed for C[C@H](Oc1cc(N2CCNC3(CCCC3)C2)nc(-c2noc3c2CCC[C@@]32CCCc3sc(N)c(C#N)c32)n1)[C@@H]1CCCN1C [II-41] ?
Output: 1650

Task: Which IC50 is listed for C[C@H](Oc1cc(-n2ccnc2)nc(-c2noc3c2CCC[C@@]32CCCc3sc(N)c(C#N)c32)n1)[C@@H]1C[C@@H](F)CN1C [II-120] ?
Output: 1090

Task: Which IC50 is listed for C[C@H](Oc1cc(-c2cncnc2)nc(-c2noc3c2CCC[C@@]32CCCc3sc(N)c(C#N)c32)n1)[C@@H]1CCCN1C [II-82] ?
Output: 2680

Task: Which IC50 is listed for C[C@H](Oc1cc(-c2ccn(-c3ccsc3)n2)nc(-c2noc3c2CCC[C@@]32CCCc3sc(N)c(C#N)c32)n1)[C@@H]1CCCN1C [II-84] ?
Output: 583

Task: Which IC50 is listed for CNC(=O)c1cn(-c2cc(O[C@@H](C)[C@@H]3CCCN3C)nc(-c3noc4c3CCC[C@@]43CCCc4sc(N)c(C#N)c43)n2)nn1 [II-122] ?
Output: 961

Task: Which IC50 is listed for C[C@H](Oc1cc(-c2ccn(C[C@H]3CCOC3)n2)nc(-c2noc3c2CCC[C@@]32CCCc3sc(N)c(C#N)c32)n1)[C@@H]1CCCN1C [II-129] ?
Output: 198

Task: Which IC50 is listed for C[C@H]1CN(C)CCCN1c1cc(N2CCN(C)CC2)nc(-c2noc3c2CCC[C@@]32CCCc3sc(N)c(C#N)c32)n1 [II-30] ?
Output: 3550

Task: Which IC50 is listed for C[C@H](Oc1cc(N2CCN3CCC3C2)nc(-c2onc3c2CCC[C@@]32CCCc3sc(N)c(C#N)c32)n1)[C@@H]1CCCN1C (stereo partly shown) [I-9] ?
Output: 3340

Task: Which IC50 is listed for C[C@H](Oc1cc(N2CCN[C@@H](C)C2)nc(-c2noc3c2CCC[C@@]32CCCc3sc(N)c(C#N)c32)n1)[C@@H]1CCCN1C [II-162] ?
Output: 3320

Task: Which IC50 is listed for C[C@H](Oc1cc(C2CCOCC2)nc(-c2noc3c2CCC[C@@]32CCCc3sc(N)c(C#N)c32)n1)[C@@H]1CCCN1C [II-76] ?
Output: 1300

Task: Which IC50 is listed for C[C@H](Oc1cc(-n2ccnc2)nc(-c2onc3c2CCC[C@@]32CCCc3sc(N)c(C#N)c32)n1)[C@@H]1CCCN1C [I-20] ?
Output: 1360

Task: Which IC50 is listed for C[C@H](Oc1cc(N2C[C@H](C)N(C)[C@@H](C)C2)nc(-c2onc3c2CCC[C@@]32CCCc3sc(N)c(C#N)c32)n1)[C@@H]1CCCN1C [I-43] ?
Output: 1410

Task: Which IC50 is listed for C[C@H](Oc1cc(-n2ccc(C(=O)N3CCCC3)n2)nc(-c2noc3c2CCC[C@@]32CCCc3sc(N)c(C#N)c32)n1)[C@@H]1CCCN1C [II-19] ?
Output: 19

Task: Which IC50 is listed for C[C@H](Oc1cc(-c2cnsc2)nc(-c2noc3c2CCC[C@@]32CCCc3sc(N)c(C#N)c32)n1)[C@@H]1CCCN1C [II-111] ?
Output: 858

Task: Which IC50 is listed for CC(C)N1CCCN(c2cc(-n3ccnc3)nc(-c3noc4c3CCC[C@@]43CCCc4sc(N)c(C#N)c43)n2)[C@@H](C)C1 [II-169] ?
Output: 2280

Task: Which IC50 is listed for C[C@H](Oc1cc(N2CCNC3(CC3)C2)nc(-c2noc3c2CCC[C@@]32CCCc3sc(N)c(C#N)c32)n1)[C@@H]1C[C@@H](F)CN1C [II-165] ?
Output: 1790

Task: Which IC50 is listed for C[C@H](Oc1cc(-c2cncs2)nc(-c2noc3c2CCC[C@@]32CCCc3sc(N)c(C#N)c32)n1)[C@@H]1CCCN1C [II-80] ?
Output: 1670

Task: Which IC50 is listed for C[C@H](Oc1cc(N2CC[C@@H](N(C)C)C2)nc(-c2noc3c2CCC[C@@]32CCCc3sc(N)c(C#N)c32)n1)[C@@H]1CCCN1C [II-47] ?
Output: 2020

Task: Which IC50 is listed for C[C@H](Oc1cc([C@@H]2CCOC2)nc(-c2onc3c2CCC[C@@]32CCCc3sc(N)c(C#N)c32)n1)[C@@H]1CCCN1C [I-22] ?
Output: 10200

Task: Which IC50 is listed for C[C@H](Oc1cc(-c2ccn(C)n2)nc(-c2noc3c2CCC[C@@]32CCCc3sc(N)c(C#N)c32)n1)[C@@H]1C[C@H](F)CN1C [II-144] ?
Output: 3690

Task: Which IC50 is listed for C[C@H](Oc1cc(-c2ccn(C[C@@H](C)O)n2)nc(-c2onc3c2CCC[C@@]32CCCc3sc(N)c(C#N)c32)n1)[C@@H]1CCCN1C [I-30] ?
Output: 837

Task: Which IC50 is listed for C[C@H](Oc1cc(N2CCN(C)C3(COC3)C2)nc(-c2noc3c2CCC[C@@]32CCCc3sc(N)c(C#N)c32)n1)[C@@H]1C[C@@H](F)CN1C [II-148] ?
Output: 2220

Task: Which IC50 is listed for C[C@H](O)Cn1ccc(-c2cc(O[C@@H](C)[C@@H]3CCCN3C)nc(-c3noc4c3CCC[C@@]43CCCc4sc(N)c(C#N)c43)n2)n1 [II-112] ?
Output: 197

Just for reference, patent US20240174690A1 is where these values come from.
